Field: AC50. Provide a value for each of the compounds that follow.
- Measured On: Progesterone receptor (Homo sapiens)
- Sequence (P06401 whole entry): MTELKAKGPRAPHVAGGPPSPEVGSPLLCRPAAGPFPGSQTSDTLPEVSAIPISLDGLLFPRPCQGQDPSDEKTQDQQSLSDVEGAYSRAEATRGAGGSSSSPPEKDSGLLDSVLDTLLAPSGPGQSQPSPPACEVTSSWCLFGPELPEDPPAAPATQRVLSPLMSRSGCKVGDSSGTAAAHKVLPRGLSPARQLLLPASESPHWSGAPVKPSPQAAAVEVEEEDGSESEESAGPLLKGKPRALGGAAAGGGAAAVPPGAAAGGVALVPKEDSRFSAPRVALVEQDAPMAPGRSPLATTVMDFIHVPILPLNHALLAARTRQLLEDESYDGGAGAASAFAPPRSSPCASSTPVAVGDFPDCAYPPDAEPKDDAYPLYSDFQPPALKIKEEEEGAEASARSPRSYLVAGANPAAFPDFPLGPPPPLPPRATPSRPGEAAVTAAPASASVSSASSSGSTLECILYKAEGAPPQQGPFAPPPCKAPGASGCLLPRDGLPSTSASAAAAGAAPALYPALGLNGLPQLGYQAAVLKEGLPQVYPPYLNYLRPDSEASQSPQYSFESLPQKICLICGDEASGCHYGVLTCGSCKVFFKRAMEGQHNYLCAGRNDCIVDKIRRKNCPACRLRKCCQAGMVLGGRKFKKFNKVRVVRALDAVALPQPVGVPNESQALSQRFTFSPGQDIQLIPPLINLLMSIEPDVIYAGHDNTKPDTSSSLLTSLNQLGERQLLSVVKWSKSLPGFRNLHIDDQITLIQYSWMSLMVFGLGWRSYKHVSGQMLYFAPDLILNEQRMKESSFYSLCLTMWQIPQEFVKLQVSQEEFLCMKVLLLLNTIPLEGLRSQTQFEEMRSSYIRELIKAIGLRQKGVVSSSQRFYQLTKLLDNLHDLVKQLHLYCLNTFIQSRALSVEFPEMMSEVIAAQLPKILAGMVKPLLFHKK
- Type: functional
Where a SMILES comes first, the peptide text is derived from it. [ ]: non-standard residue; d: D form. pGlu = O=C1CC[C@@H](C(=O)O)N1; Thz = O=C(O)[C@@H]1CSCN1

Q. Supply AC50 value. Item: CN1CCN=C(c2ccccc2)c2cc(Cl)ccc21 [MEDAZEPAM]
A. > 30 µM

Q. Supply AC50 value. Item: CCCC(C)(COC(N)=O)COC(N)=O [MEPROBAMATE]
A. > 10 µM

Q. Supply AC50 value. Item: C[C@@H]1C[C@H]2[C@@H]3CCC4=CC(=O)C=C[C@]4(C)[C@@]3(F)[C@@H](O)C[C@]2(C)[C@@]1(O)C(=O)CO [DEXAMETHASONE]
A. 0.2 µM

Q. Supply AC50 value. Item: CC=CC1=C(C(=O)O)N2C(=O)[C@@H](NC(=O)[C@H](N)c3ccc(O)cc3)[C@H]2SC1 [CEFPROZIL]
A. > 30 µM

Q. Supply AC50 value. Item: O=C1CC[C@@H](C(=O)N2CSC[C@H]2C(=O)O)N1 [PIDOTIMOD] ([pGlu]-[Thz]-OH)
A. > 30 µM

Q. Supply AC50 value. Item: Cc1ccccc1-n1c(CF)nc2ccc(N)cc2c1=O [AFLOQUALONE]
A. > 30 µM

Q. Supply AC50 value. Item: CCOC(=O)c1c(CSc2ccccc2)n(C)c2cc(Br)c(O)c(CN(C)C)c12 [UMIFENOVIR]
A. > 30 µM

Q. Supply AC50 value. Item: CN1Cc2c(N)cccc2C(c2ccccc2)C1 (stereo not given) [NOMIFENSINE]
A. > 30 µM

Q. Supply AC50 value. Item: C[C@]12CCC(=O)C[C@@H]1CC[C@@H]1[C@@H]2CC[C@]2(C)[C@@H](O)CC[C@@H]12 [STANOLONE]
A. 0.0396 µM

Q. Supply AC50 value. Item: COc1ccc([C@@H]2CC(=O)c3c(O)cc(O)cc3O2)cc1O [HESPERETIN]
A. > 10 µM

Q. Supply AC50 value. Item: "CC(C)N(CCCCOCC(=O)O)c1cnc(-c2ccccc2)c(-c2ccccc2)n1"
A. > 30 µM

Q. Supply AC50 value. Item: CO/N=C(\C(=O)N[C@@H]1C(=O)N2C(C(=O)O)=C(CSc3nc(=O)c(=O)[nH]n3C)CS[C@H]12)c1csc(N)n1 [CEFTRIAXONE]
A. > 30 µM

Q. Supply AC50 value. Item: O=C1c2ccccc2C(=O)C1c1ccccc1 [PHENINDIONE]
A. > 10 µM

Q. Supply AC50 value. Item: CC1=C(C(=O)OC(C)C)C(c2cccc([N+](=O)[O-])c2)C(C(=O)OC2CN(C(c3ccccc3)c3ccccc3)C2)=C(N)N1 (stereo not given) [AZELNIDIPINE]
A. > 30 µM

Q. Supply AC50 value. Item: Cc1cc(C2CCCCC2)n(O)c(=O)c1 [CICLOPIROX]
A. > 30 µM

Q. Supply AC50 value. Item: c1ccc(C2(N3CCCCC3)CCCCC2)cc1 [PHENCYCLIDINE]
A. > 30 µM

Q. Supply AC50 value. Item: Cn1cc(C(=O)[C@@H]2CCc3nc[nH]c3C2)c2ccccc21 [RAMOSETRON]
A. > 30 µM

Q. Supply AC50 value. Item: CC(C(=O)O)c1ccc2c(c1)CC(=O)c1ccccc1S2 (stereo not given) [ZALTOPROFEN]
A. > 30 µM

Q. Supply AC50 value. Item: CC/C=C\C/C=C\C/C=C\C/C=C\C/C=C\CCCC(=O)OCC [ICOSAPENT ETHYL]
A. > 30 µM

Q. Supply AC50 value. Item: "CCCc1nc2c(C)cc(-c3nc4ccccc4n3C)cc2n1Cc1ccc(-c2ccccc2C(=O)O)cc1"
A. > 30 µM

Q. Supply AC50 value. Item: COc1ccc(CN2CCN(C(c3ccc(F)cc3)c3ccc(F)cc3)CC2)c(OC)c1OC [LOMERIZINE]
A. > 30 µM

Q. Supply AC50 value. Item: NS(=O)(=O)c1cc2c(cc1Cl)N=C(CSCc1ccccc1)NS2(=O)=O [BENZTHIAZIDE]
A. > 30 µM

Q. Supply AC50 value. Item: COC(=O)C1=C(C)NC(C)=C(C(=O)OCCN2CCN(C(c3ccccc3)c3ccccc3)CC2)C1c1cccc([N+](=O)[O-])c1 (stereo not given) [MANIDIPINE 6300]
A. > 30 µM

Q. Supply AC50 value. Item: O=C(O)CCNC(=O)c1ccc(/N=N/c2ccc(O)c(C(=O)O)c2)cc1 [BALSALAZIDE]
A. > 30 µM

Q. Supply AC50 value. Item: CCN1CCCC1CNC(=O)c1cc(S(=O)(=O)CC)ccc1OC (stereo not given) [SULTOPRIDE]
A. > 30 µM

Q. Supply AC50 value. Item: O=C1OC(OC(=O)c2cccnc2Nc2cccc(C(F)(F)F)c2)c2ccccc21 (stereo not given) [TALNIFLUMATE]
A. > 30 µM

Q. Supply AC50 value. Item: CNC[C@H](O)c1ccc(O)c(O)c1 [EPINEPHRINE]
A. > 30 µM

Q. Supply AC50 value. Item: "CCOc1cc([C@@H](CS(C)(=O)=O)N2C(=O)c3cccc(NC(C)=O)c3C2=O)ccc1OC"
A. > 30 µM

Q. Supply AC50 value. Item: CC(C)c1cccc(C(C)C)c1O [PROPOFOL]
A. > 30 µM

Q. Supply AC50 value. Item: CCCN(CCC)S(=O)(=O)c1ccc(C(=O)O)cc1 [PROBENECID]
A. > 10 µM
